The reported measurements were obtained from PubChem BioAssay (NCATS).

Experiment: Quantitative highthroughput screen to assess conditional lethalithy of P12 Ichikawa cells grown in RPMI1640 with dialyzed fetal bovine serum (RPMI+ds) (AID 1963880); also: nearly all actives have a fitted effect of over 35% in size
Settings: ATP luminescence, 48 h; P12-Ichikawa viability; series mostly up to 45.8 µM
Inconclusive results are not listed. The source made the active and inactive calls. Calls follow the shape of the dose curve; as a rule, active = well fitted cell-killing curve with a large enough effect; inconclusive = small, poorly fitted or top-dose-only effect; inactive = flat fitted curve, though single readings scatter.
Outcomes: active, inactive

molecule	assigned_label
COC(=O)C=CC(=O)OC	active
CCCCN(CCCC)C(=O)CN1C[C@H](c2ccc3c(c2)OCO3)[C@@H](C(=O)O)[C@@H]1c1ccc(OC)cc1	inactive
CC(C)[C@H](O)C(=O)N[C@@H](C)C(=O)N[C@@H]1C(=O)N(C)CCc2ccccc21	inactive
CON=C(C(=O)N[C@@H]1C(=O)N2C(C(=O)OCOC(=O)C(C)(C)C)=C(C=Cc3scnc3C)CS[C@H]12)c1csc(N)n1	active
Cn1c(=O)n(-c2ccc(C(C)(C)C#N)cc2)c2c3cc(-c4cnc5ccccc5c4)ccc3ncc21	active
NC[C@H](O)c1ccc(O)c(O)c1	inactive
CCCCc1oc2ccccc2c1C(=O)c1cc(I)c(OCCN(CC)CC)c(I)c1	inactive
COc1ccc2nc(S(=O)Cc3ncc(C)c(OC)c3C)[nH]c2c1 (centres undefined)	inactive
O=C(Nc1ncc(-c2cc(C(F)F)nn2-c2c(Cl)cccc2Cl)s1)C1CC1	active
Cn1c(=O)c2c(ncn2CC(O)CO)n(C)c1=O (centres undefined)	inactive
COc1cc2c(Nc3ccc(NC(=O)c4ccccc4)cc3)ncnc2cc1OCCCN1CCOCC1	active
Nc1nc(N)nc(-c2cc(Cl)ccc2Cl)n1	inactive
NC1CCC(Nc2nc(Nc3ccc(C(=O)N4CCCCC4)cc3)c3ncn(-c4cccc(F)c4)c3n2)CC1 (centres undefined)	inactive
CCN(CC)CCCCNc1nc2cc(Cl)c(Cl)cc2nc1-c1ccc(-c2cccs2)s1	active
COc1nc(-c2ccc3c(c2)OCO3)n(-c2ccc(NC(=O)CSc3ccccc3)cc2)n1	inactive
CC(C)(C)[C@H](NC(=O)c1ccc(N)c(Cl)c1)C(=O)N1CCC[C@@H]1C(=O)N[C@H](C#N)CC(=O)O	active
Cc1nc2c(-c3cnc(N)nc3)nc(N3CCOCC3)nc2n1C(C)C	active
C[C@@H](Oc1cc(-c2cnn(C3CCNCC3)c2)cnc1N)c1c(Cl)ccc(F)c1Cl	active
O=C(CS(=O)Cc1ccco1)NCC=CCOc1cc(CN2CCCCC2)ccn1 (centres undefined)	inactive
COc1cccc(Nc2c(C(N)=O)cnc3c(C)cc(S(=O)(=O)c4cccc(C(=O)N(C)C)c4)cc23)c1	inactive
CC(COc1ccccc1)N(CCCl)Cc1ccccc1 (centres undefined)	active
CCC=CC[C@H]1C(=O)CC[C@@H]1CC(=O)OC	inactive
CN(C)CCc1c[nH]c2ccc(C[C@H]3COC(=O)N3)cc12	active
O=C(O)c1cn(-c2ccc(F)cc2)c2cc(N3CCNCC3)c(F)cc2c1=O	inactive
CCCCN(CCCC)CCC(O)c1cc2c(Cl)cc(Cl)cc2c2cc(C(F)(F)F)ccc12 (centres undefined)	inactive
Cc1ccc(C(=O)c2cc(O)c(O)c([N+](=O)[O-])c2)cc1	inactive
CC[C@H](C=C[C@@H](C)[C@H]1CC[C@H]2[C@@H]3CC=C4C[C@@H](O)CC[C@]4(C)[C@@H]3CC[C@]12C)C(C)C	inactive
CC[C@@H]1C(=O)N(C)c2cnc(Nc3ccc(C(=O)NC4CCN(C)CC4)cc3OC)nc2N1C1CCCC1	active
C[C@H]1c2cccc(O)c2C(O)=C2C(=O)[C@]3(O)C(O)=C(C(N)=O)C(=O)[C@@H](N(C)C)[C@@H]3[C@@H](O)[C@@H]21	active
NC[C@H]1O[C@H](O[C@@H]2[C@@H](O)[C@@H](O[C@H]3O[C@H](CO)[C@@H](O)[C@H](N)[C@@H]3O)[C@H](N)C[C@@H]2N)[C@H](O)[C@@H](O)[C@H]1O	inactive
O=c1[nH]c(-c2ccc(C(F)(F)F)cc2)nc2c1CSCC2	inactive
Cc1cnc(-c2cc(N3CCN(C(=O)CCS(C)(=O)=O)CC3)ncc2Cl)c(C)c1	inactive
O=NN(CCCl)C(=O)NCCCl	inactive
CC(NCCc1ccc(O)cc1)C(O)c1ccc(O)cc1 (centres undefined)	inactive
O=C(/C=C\n1cnc(-c2cc(C(F)(F)F)cc(C(F)(F)F)c2)n1)NNc1cnccn1	active
CCN(C(=O)c1c(O)c2c(Cl)cccc2n(C)c1=O)c1ccccc1	active
NS(=O)(=O)c1cc2c(cc1Cl)NCNS2(=O)=O	inactive
OC(CN1CCC(Cc2ccc(F)cc2)CC1)c1ccc(Cl)cc1 (centres undefined)	inactive
CCc1cc(C(C)=NOCc2ccc(C3CCCCC3)c(C(F)(F)F)c2)ccc1CN1CC(C(=O)O)C1	active

====

Assay: Quantitative highthroughput screen to assess conditional lethalithy of NOMO1 cells grown in Human Plasma-Like Medium with dialyzed fetal bovine serum (HPLM+ds) (AID 1963878); also: nearly all actives have a fitted effect of over 35% in size
Conditions: NOMO1 AML cells in HPLM+ds, CellTiter-Glo viability, 48 h; series mostly up to 45.8 µM
Records with an inconclusive call do not appear. Active and inactive are the calls of the source. Calls follow the shape of the dose curve; as a rule, active = well fitted cell-killing curve with a large enough effect; inconclusive = small, poorly fitted or top-dose-only effect, or effect the other way; inactive = no such curve, though single readings can be large or run the other way.
Outcomes: active, inactive

compound	assigned_label
CNCCCC12CCC(c3ccccc31)c1ccccc12	active
CCC(=C(CC)c1ccc(O)cc1)c1ccc(O)cc1	inactive
Clc1ccc(-c2nc3sccn3c2C=NOCc2ccc(Cl)c(Cl)c2)cc1	inactive
COc1cccc2nc(-c3cccs3)nc(NN3C(=O)C=C(C)C3=O)c12	active
Cc1nc(NC(=O)N2CCC[C@@H]2C(N)=O)sc1-c1csc(C(C)(C)C)n1	active
COC(=O)[C@H](CCCN=C(N)N)NS(=O)(=O)c1ccc(C)cc1	active
Cc1ccc(NC(=O)c2ccc(CN3CCN(C)CC3)cc2)cc1Nc1nc(-c2cccnc2)cs1	active
Cn1cnc([N+](=O)[O-])c1Sc1ncnc2nc[nH]c12	active
Cc1cnc(C(=O)O)c[n+]1[O-]	inactive
NS(=O)(=O)c1cc2c(cc1Cl)NCNS2(=O)=O	inactive
CC(C)(O)CCc1ccc(OCc2cc(-c3cccc(OC(F)F)c3)c3ncccc3c2)cc1	inactive
COCCCCC(=NOCCN)c1ccc(C(F)(F)F)cc1	active
CN1CC(=O)NC1=NC(=O)Nc1cccc(Cl)c1	inactive
CS(=O)(=O)c1ccc([C@@H](O)[C@@H](CO)NC(=O)C(Cl)Cl)cc1	inactive
O=C(/C=C\n1cnc(-c2cc(C(F)(F)F)cc(C(F)(F)F)c2)n1)NNc1cnccn1	active
O=C(CCCCCCNC(=O)c1cnc(N(c2ccccc2)c2ccccc2)nc1)NO	active
COC1=C2C[C@@H](C)C[C@H](OC)[C@@H](O)[C@@H](C)C=C(C)[C@H](OC(N)=O)[C@@H](OC)C=CC=C(C)C(=O)NC(=CC1=O)C2=O	active
COc1cc(OC)cc(-c2ccc3ncc4ccc(=O)n(-c5ccc(N6CCNCC6)c(C(F)(F)F)c5)c4c3c2)c1	active
Cc1cc(O)c2c(c1)C(=O)c1cccc(O)c1C2=O	active
CN(C)c1ccc(C2Nc3ccc4ccccc4c3C3=C2C(=O)CC(C)(C)C3)cc1Br (stereo not given)	inactive
C[C@H](Cn1cnc2c(N)ncnc21)OCP(=O)(O)O	inactive
Cc1cc(SCc2sc(-c3ccc(C(F)(F)F)cc3)nc2C)ccc1OCC(=O)O	inactive
CO[C@H]1C[C@@H]2CC[C@@H](C)[C@@](O)(O2)C(=O)C(=O)N2CCCC[C@@H]2C(=O)O[C@H]([C@@H](C)C[C@@H]2CC[C@H](O)[C@H](OC)C2)CC(=O)[C@H](C)C=C(C)[C@@H](O)[C@@H](OC)C(=O)[C@H](C)C[C@H](C)C=CC=CC=C1C	inactive
CCCCN(CCCC)CC(O)c1cc(Cl)cc2c1-c1ccc(Cl)cc1C2=Cc1ccc(Cl)cc1 (stereo not given)	inactive
COc1cc(O)c2c(c1)C1OC1C[C@H](O)[C@H](O)C(=O)C=CC[C@H](C)OC2=O (stereo not given in full)	active
COc1ccc(CCC(=O)Nc2nc3ccc(Cl)cc3s2)cc1OC	inactive
C=CC(=O)N1CCc2ccc(-n3c(=O)ccc4cnc5ccc(-c6cnn(C)c6)cc5c43)cc21	active
COc1cccc(-c2cc(=O)c3ccccc3o2)c1N	inactive
Nc1cc(C(F)(F)F)c(-c2cc(N3CCOCC3)nc(N3CCOCC3)n2)cn1	active
Cc1cn2cc(C(=O)N(C)CCO)cc(N[C@@H]3CCOc4cccc(C)c43)c2n1	inactive
CC(C)(Sc1ccc(CCN(CCCCC2CCCCC2)C(=O)NC2CCCCC2)cc1)C(=O)O	inactive
N=c1nc(N2CCCCC2)cc(N)n1O	inactive
O=C(c1cncc(Br)c1)N1CCC(N2CCCC2)CC1	inactive
O=C1NC(O)CCN1[C@@H]1O[C@H](CO)[C@H](O)[C@H]1O (stereo not given in full)	active
Cc1cc(C=c2sc3nc4ccccc4n3c2=O)c(C)n1-c1ccccc1	inactive
CCCCCOC(=O)Nc1nc(=O)n([C@@H]2O[C@H](C)[C@@H](O)C2O)cc1F (stereo not given in full)	inactive
CNCc1ccc(-c2[nH]c3cc(F)cc4c3c2CCNC4=O)cc1	inactive
O=C(C[C@@H]1CC=CCCC(=O)O[C@H](c2ccccc2)CNC1=O)NCc1ccc(Cl)cc1	inactive
C[C@H]1Oc2cc(cnc2N)-c2c(nn(C)c2C#N)CN(C)C(=O)c2ccc(F)cc21	inactive
Oc1ccc(C=Cc2cc(O)cc(O)c2)cc1	active
